Biological target: T1, recombinant fibronectin domain ED-B (His)6 (human, UniProt P02751 1266-1356)
T1 construct: domain: ED-B; Produced by standard procedures; immobilised on ELISA plates or on the BIAcore chip; also called recombinant ED-B; human ED-B
Assay: SPR (BIAcore), ED-B immobilised on chip, Fab in flow
The entries below come with measured kon values attached.
Provide the reading as a plain figure in M⁻¹ s⁻¹.

Example entries begin here.
MOR02622 (Fab, V domains shown, HuCAL GOLD Fab, VH3/L2) VH: QVQLVESGGGLVQPGGSLRLSCAASGFTFSNYAMTWVRQAPGKGLEWVSGISYKSSSTYYADSVKGRFTISRDNSKNTLYLQMNSLRAEDTAVYYCARGLVTFDNWGQGTLVTVSS VL: DIALTQPASVSGSPGQSITISCTGTSSDGGTYNFVSWYQQHPGKAPKLMIYRVSNRPSGVSNRFSGSKSGNTASLTISGLQAEDEADYYCSSWTHSFTDYVFGGGTKLTVLG: 240000
MOR02722 (Fab, V domains shown, HuCAL GOLD Fab, VH3/K2) VH: QVQLVESGGGLVQPGGSLRLSCAASGFTFSSNAIHWVRQAPGKGLEWVSSISGSGSNTYYADSVKGRFTISRDNSKNTLYLQMNSLRAEDTAVYYCARFIASWGQGTLVTVSS VL: DIVMTQSPLSLPVTPGEPASISCRSSQSLVHSNGYTDLNWYLQKPGQSPQLLIYLGSYRASGVPDRFSGSGSGTDFTLKISRVEAEDVGVYYCQQYSNFPFTFGQGTKVEIKR: 150000

Input line: Name the recorded kon for MOR02610 (Fab, V domains shown, HuCAL GOLD Fab, VH1B/L1) VH: QVQLVQSGAEVKKPGASVKVSCKASGYTFTGFYINWVRQAPGQGLEWMGWINPYSGNTRYAQKFQGRVTMTRDTSISTAYMELSSLRSEDTAVYYCARSPVYYKYDYWGQGTLVTVSS VL: DIVLTQPPSVSGAPGQRVTISCSGSSGNIGINFVNWYQQLPGTAPKLLIYKNNKRPSGVPDRFSGSKSGTSASLAITGLQSEDEADYYCQSYDKTSSTYVFGGGTKLTVLG .
Output line: 1.3e+06
